Entries and their Ki
Target: ENPP1 (Homo sapiens)
Sequence (P22413 whole entry): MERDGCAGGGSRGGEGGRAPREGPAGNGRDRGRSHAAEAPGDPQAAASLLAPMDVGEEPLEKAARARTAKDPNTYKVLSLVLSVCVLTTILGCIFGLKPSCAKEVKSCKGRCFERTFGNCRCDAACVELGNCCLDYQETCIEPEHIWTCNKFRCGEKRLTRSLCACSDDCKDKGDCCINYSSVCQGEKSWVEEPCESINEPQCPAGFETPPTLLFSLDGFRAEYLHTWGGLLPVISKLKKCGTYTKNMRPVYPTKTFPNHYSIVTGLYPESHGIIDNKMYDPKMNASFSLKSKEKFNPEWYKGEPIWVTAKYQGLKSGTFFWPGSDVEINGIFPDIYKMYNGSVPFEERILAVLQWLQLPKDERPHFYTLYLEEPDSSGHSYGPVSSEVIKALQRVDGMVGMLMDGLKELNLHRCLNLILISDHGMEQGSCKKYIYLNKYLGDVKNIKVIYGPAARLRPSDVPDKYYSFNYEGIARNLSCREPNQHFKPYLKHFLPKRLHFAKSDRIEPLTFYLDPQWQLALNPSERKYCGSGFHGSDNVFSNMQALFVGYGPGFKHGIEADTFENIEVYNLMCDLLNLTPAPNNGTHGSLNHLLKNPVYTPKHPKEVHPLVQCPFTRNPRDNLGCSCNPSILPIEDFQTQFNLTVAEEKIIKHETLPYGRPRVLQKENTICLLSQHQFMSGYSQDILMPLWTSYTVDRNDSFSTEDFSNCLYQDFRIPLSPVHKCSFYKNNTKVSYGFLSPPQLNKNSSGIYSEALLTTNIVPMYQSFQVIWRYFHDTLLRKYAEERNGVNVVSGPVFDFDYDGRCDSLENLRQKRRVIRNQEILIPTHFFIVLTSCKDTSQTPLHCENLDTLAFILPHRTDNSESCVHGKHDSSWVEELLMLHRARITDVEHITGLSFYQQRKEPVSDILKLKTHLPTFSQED
Assay: Indirect quantitation of 2',3'-cGAMP hydrolysis (AMP-Glo Assay kit)
Format: biochemical
Settings: cGAMP substrate; Ki from IC50 by Cheng-Prusoff; read-out: ENPP1 Inhibition -cGAMP: Ki

The examples below pair each entry with its known result.
>>> recorded_value("COc1cc2ncc(C(N)=O)c(N3CCC(CCNS(N)(=O)=O)CC3)c2cc1OC")
"< 100 nM"
>>> recorded_value("COc1ccc2c(-n3cnc(CNS(N)(=O)=O)c3)ccnc2c1")
"< 100 nM"
>>> recorded_value("COc1cc2ncnc(-c3ccc(CN(C4CC4)S(N)(=O)=O)cc3)c2cc1OC")
"< 100 nM"
>>> recorded_value("COc1cc2ncnc(N3CCC(Cn4c(N)nc5ccccc54)CC3)c2cc1OC")
"> 1000 nM"

Shifting focus to the compound that follows.
Suppose we examine the compound COc1ccc2ncc(C#N)c(-c3ccc4c(c3)CN(S(N)(=O)=O)CC4)c2c1 ; what Ki value has been reported?
< 100 nM
